For each of the compounds below, state its GI50.
- System: HL-60
- measurement_description: NCI tumour cell line growth inhibition, 48 h
Active and inactive are the calls of the source. Cut-off read from the data, not from the text of the source: active = GI50 up to about 1.1 µM and inactive = higher.

q: Note GI50 for the compound shown: COc1ccc(C2CC(c3sc(Nc4ccc(C)cc4)nc3C)=NN2)cc1 (stereo unspecified)
a: 7.64 µM (inactive)

q: Return GI50 (reported value) for this compound: COc1ccc(C2=NN(c3nsc4ccccc34)C(=O)CC2)cc1
a: 39.4 µM (inactive)

q: Assign GI50 to the following record: O=C(CSCC(=O)N/N=C/c1cc(I)cc(I)c1O)N/N=C/c1cc(I)cc(I)c1O
a: 6.18 µM (inactive)

q: Using known records, supply GI50 for CCOC(=O)c1cccc(NC(=O)CCl)c1
a: 3.94 µM (inactive)

q: Check the records and state GI50 for COc1cc2c(/C=C3/C(=O)Nc4cc(C)c(O)cc43)c(Cl)[nH]c2cc1C
a: 1.86 µM (inactive)

q: Supply GI50 value. Item: COC(=O)C1(Cc2cccc(Cl)c2)CCCCCCN1C(=O)c1ccccc1 (stereo unspecified)
a: 5.97 µM (inactive)

---

- Tested on: UACC-257
- measurement_description: NCI tumour cell line growth inhibition, 48 h
The source made the active and inactive calls. Cut-off read from the data, not from the text of the source: active = GI50 up to about 1.1 µM and inactive = higher.
Could you please pick one outcome from this set? active, inactive

q: Recorded test call requested for COc1ccc(C(C)c2cc3c(cc2O)OCO3)cc1 (stereo unspecified)
a: inactive

q: Test call, this compound: Nc1nc(=O)n([C@@H]2CC[C@H](CO)O2)cc1F
a: inactive

q: Returns: the outcome recorded for COC(=O)c1c[nH]cc1CCc1c[nH]cc1C(=O)OC in this assay.
a: inactive

q: Given O=C1OC(c2ccccc2)N/C1=C\c1ccc2c(c1)OCO2 (stereo unspecified) , state the outcome it received in this test.
a: inactive

q: Assay result, entry O=C(Nc1ccccc1)C(=O)C(C(=O)c1ccccc1)C(c1ccccc1)c1ccccc1 (stereo unspecified) — outcome?
a: inactive

q: Identify the outcome logged in this assay for the compound shown: CCN(CC)CCCNc1ccc([N+](=O)[O-])c2nc3ccc(OC)cc3c(N)c12
a: inactive

q: Name the outcome recorded for O=C1/C(=C/c2ccccc2)NC(=S)N1CN1CCOCC1 in the assay.
a: inactive

q: I'd appreciate the recorded outcome for O=C1OC(c2ccc(Cl)cc2)=N/C1=C\c1ccccc1 from this test.
a: inactive

q: Which outcome did this test record for the compound Cc1cccc(Nc2nn3c(=O)c4c5c(sc4nc3s2)CCCC5)c1 ?
a: inactive

q: What is the recorded call for this compound in the test? CC(=O)O[C@@H]1C2=C(C3=C([O-])C4=CC=CC(=O)C4C(=O)C3=C2[N+]#N)[C@H](OC(C)=O)[C@@H](OC(C)=O)[C@]1(C)O (stereo partly specified)
a: active

q: Please indicate how the test categorized Cc1csc2c1C(=O)c1ccsc1C2=O .
a: inactive

---

- Test system: HT-29
- measurement_description: NCI tumour cell line growth inhibition, 48 h
Calls of active or inactive are those of the source. Rule as the data show it: active = GI50 up to about 1.1 µM and inactive = higher.
measured_parameter: GI50

q: Identify measured GI50 obtained with HT-29 for CC(=O)n1c2ccc(Br)cc2c2nc3ccccc3nc21 .
a: > 100 µM (inactive)

q: Quote GI50 with test system HT-29 for N/C(CSCCSC/C(N)=N/O)=N\O
a: > 100 µM (inactive)

q: System HT-29. Read-out GI50. Item Cc1cccc(/C=C2\CCCc3ccccc3C2=O)c1 . Report value.
a: 18.5 µM (inactive)

q: Report GI50 from HT-29 testing of CO[C@@]12[C@H](COC(N)=O)C3=C(C(=O)C(C)=C(N)C3=O)N1C[C@H]1[C@@H]2N1C (some centres undefined)
a: 1.42 µM (inactive)
